Reference source: ChEMBL document CHEMBL1201862

# System: OVCAR-3
# assay procedure: NCI tumour cell line growth inhibition, 48 h
Activity calls are given as the source filed them. No stated cut-off is given here; in the data, active = GI50 up to about 1.1 µM and inactive = higher.
Permitted responses: active, inactive

                                compound  class_assignment
0  Cc1ccc(/C=C/C(=O)c2ccc(Cl)c(Cl)c2)cc1          inactive

In: Could you kindly confirm the outcome this assay logged for COc1cccc2c1C(=O)c1c(O)c3c(c(O)c1C2=O)C[C@@](O)(C(=O)CO)C[C@@H]3OC1CC(N(C)C)C(O)C(C)O1 (stereo partly drawn) ?
Out: active

In: Entry CCOC(=N)CC(=O)Nc1ccccc1 : call = ?
Out: inactive

---

# Tested on: EKVX
# assay procedure: NCI tumour cell line growth inhibition, 48 h
The source made the active and inactive calls. No stated cut-off is given here; in the data, active = GI50 up to about 1.1 µM and inactive = higher.
Please answer using one outcome listed in active, inactive

>>> print(df.to_string())
                                   compound  class_assignment
0  Clc1cccc(C2SCc3nc4ccccc4n32)c1Cl (stereo not drawn)          inactive
1  CCCCC(/C=N/NC(=N)N)CC.Cc1cc(O)c(C(C)C)cc1S(=O)(=O)O          inactive
2          O=CC1=CCCN(CCc2c[nH]c3ccccc23)C1          inactive
3  CC(=O)N1CC(=O)N2C(=O)/C(=C/c3ccc(Cl)cc3)N=C12          inactive
4         C/C(CC(=O)Nc1ccc(C)cc1)=N\NC(N)=S          inactive
5       O=C(Nc1ccccc1)c1cc2cc(CCl)ccc2oc1=O          inactive
6  Cc1cc(Br)cc(C)c1NC(=O)C(=O)CC(=O)c1sc(-n2nc(-c3ccccc3)cc2-c2ccccc2)nc1C          inactive
7  Cc1ccc(-c2cc(-c3ccccc3)c(C#N)c(=O)[nH]2)cc1          inactive
8                       O=C(O)C/C=C/CC(=O)O          inactive
9  O=[N+]([O-])c1nccn1CCCNc1c2ccccc2[n+]([O-])c2ccccc12          inactive

In: Given Nc1nnc2oc3ccc4ccccc4c3cc1-2 , state the outcome it received in this test.
Out: inactive

In: Could you kindly confirm the outcome this assay logged for CCc1nc(N)c2nc(-c3cccs3)oc2n1 ?
Out: inactive

In: # lookup: test call for O=C(CC1C=CCS1(=O)=O)NCc1ccccc1 (stereo not drawn)
Out: inactive
